B1: tRNA (parent)
chain: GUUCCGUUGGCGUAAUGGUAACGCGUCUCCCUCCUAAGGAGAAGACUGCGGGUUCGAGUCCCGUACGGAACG

Variants of: B1
Assay: yeast fitness relative to wild type (ratio to wild type); higher = fitter; tRNA-Arg(CCU), competitive growth, 37 C, YPD
Fewer inactive variants are shown than the library holds.
endpoint.label: yeast fitness
Numbers only.

- mutation.string: "U2C U13C"
  yeast fitness: 0.991
- mutation.string: "U47G A69U"
  yeast fitness: 0.764
- mutation.string: "G10A C62U G67C"
  yeast fitness: 0.636
- mutation.string: "G38A G67A"
  yeast fitness: 0.881
- mutation.string: "C11U U28C A45U"
  yeast fitness: 0.742
- mutation.string: "C5U G18A G44C"
  yeast fitness: 0.638

Return reported yeast fitness values for all items listed beneath this line.
1. C22U C34A
2. A14U C29G U53C U54G
3. C4U U13A U59A

[0.641, 0.571, 0.811]
